protocol_summary: Toxicity liver stage against HepG2, at 10uM
Type: cell-based
Set-up: test concentration 10 uM, cell line HepG2-A16-CD81EGFP
cond: human, HepG2-A16-CD81EGFP cells; read-out: INHIBITION
This section presents molecules with their documented cytotoxicity at 10 µM values.
Just the number in %, nothing appended.

In the examples that follow, each entry is paired with its recorded cytotoxicity at 10 µM.
molecule | cytotoxicity at 10 µM / %
COc1ccc(CNc2nc(C3CC3)nc3c(C)nn(C)c23)cc1 | 5.4
NC(=O)c1cc(-c2cccc(C(=O)O)c2)cs1 | 2.77
Cc1ccc(NCCCNC(=O)NCC2CCS(=O)(=O)C2)nc1 (stereo unspecified) | 17.2

Look up cytotoxicity at 10 µM for this molecule: CCc1ccc(S(=O)(=O)NCCC(O)c2ccoc2)s1 (stereo unspecified) -10.9

Look up cytotoxicity at 10 µM for this molecule: CCc1nc(C(=O)N2CC(C)CN(C)c3ccccc32)c[nH]1 (stereo unspecified) -3.47

Look up cytotoxicity at 10 µM for this molecule: Cn1cc(C2CCCN2C(=O)CCCc2nc3ccccc3[nH]2)cn1 (stereo unspecified) 2.35

* * *

protocol_summary: Toxicity liver stage against HepG2, at 10uM
Format: cell-based
Parameters: test concentration 10 uM, cell line HepG2-A16-CD81EGFP
cond: human, HepG2-A16-CD81EGFP cells; read-out: INHIBITION
This section presents compounds with their documented cytotoxicity at 10 µM values.
Just the number in %, nothing appended.

compound | cytotoxicity at 10 µM, %
Cc1cccc(CNC2CCCc3c2cnn3C)c1 (stereo not given) | -8.77
CCN(C)S(=O)(=O)N1CCC(C(O)c2ccc(Cl)cc2)CC1 (stereo not given) | 5.84

Look up cytotoxicity at 10 µM for this compound: COc1c(C2CCCN2Cc2nnc(C3CC3)o2)c(C)nn1C (stereo not given) -9.29

Look up cytotoxicity at 10 µM for this compound: CC(C)N1CCC(Nc2ccn(Cc3ccccn3)n2)C1=O (stereo not given) -2.43

Look up cytotoxicity at 10 µM for this compound: `CCNC(=O)N1CC(c2nc(Cc3ccccc3)no2)C1` -2.98

Look up cytotoxicity at 10 µM for this compound: `CCc1ccc(NC(=O)c2cnc(N3CCN(C)CC3)nc2C)cc1` -15

Look up cytotoxicity at 10 µM for this compound: `Cc1ccc([C@H]2CN(C(C)C)C[C@@H]2NS(=O)(=O)N2CCOCC2)o1` -1.01

* * *

This section presents compounds with their documented cytotoxicity at 10 µM values.
protocol_summary: Toxicity liver stage against HepG2, at 10uM
Format: cell-based
Design: test concentration 10 uM, cell line HepG2-A16-CD81EGFP
cond: human, HepG2-A16-CD81EGFP cells; read-out: INHIBITION
Just the number in %, nothing appended.

In the examples that follow, each entry is paired with its recorded cytotoxicity at 10 µM.
compound | unit_string | value
CN(Cc1nccs1)c1nccc(N2CCN[C@H]3CS(=O)(=O)C[C@H]32)n1 | % | -5
Cc1nc(CN(C)C2CCN(CC(=O)N3CCOCC3)C2)no1 (stereo unspecified) | % | -4.91

Look up cytotoxicity at 10 µM for this compound: `Cc1c(Cl)ccc2ccc(NC(CO)CO)nc12` -7.78

Look up cytotoxicity at 10 µM for this compound: `CCN(CC)Cc1nc(Cc2cccc(C(F)(F)F)c2)no1` 9.76

Look up cytotoxicity at 10 µM for this compound: `O=C(O)c1c(-c2ccncc2)ncc2c1CCN(Cc1ccco1)C2` -3.6
